test system: CEM cells HIV-1 protection, formazan growth assay; test: NCI AIDS Antiviral Assay; details: measured here: growth of uninfected CEM cells
Measured parameter: IC50

// known answers, use as guide
O=C1SC(=NC2CCCCC2)N(C2CCCCC2)/C1=C1\C(=O)SC(=NC2CCCCC2)N1C1CCCCC1    > 26.9 µM
N#Cc1c(N)nc(-c2ccc(Cl)cc2)c2c1-c1ccccc1S(=O)(=O)CC2    > 100 µM
CC(=O)NNc1nc(C)c(C(=O)/C=C/C=C/c2ccccc2)s1    > 21.9 µM
CCOC(C)CCCS(=O)(=O)O (centres undefined)    > 200 µM
O=C1/C(=C/c2ccc(F)cc2)CCC/C1=C\c1ccc(F)cc1    > 23.4 µM

INPUT: What value of IC50 has been recorded for this entry: `CCOC(=O)NC(=S)NN(C)C1=NCC(C)(C)S1`
OUTPUT: > 200 µM

INPUT: Which IC50 value is on record for `Cc1ccc(Cl)c(-c2nc3cc(Cl)c(Cl)cc3[nH]2)c1` ?
OUTPUT: > 60.3 µM

INPUT: Request the reported IC50 associated with `O=S1(=O)C[C@@H](NCc2ccccc2)[C@H](NCc2ccccc2)C1`
OUTPUT: > 200 µM

INPUT: Name the recorded IC50 for `Cc1nnc2c3nccnc3c(N)nn12` .
OUTPUT: > 200 µM

INPUT: Recorded IC50 for CCC(C)C1(C2CCCC2)NC(=O)NC1=O (centres undefined) , please?
OUTPUT: > 200 µM

INPUT: Report IC50 for `COc1ccc(/C=C/c2onc3c(=O)n(C)nc(-c4ccccc4)c23)cc1` please.
OUTPUT: > 20 µM

====

Test system: CEM cells HIV-1 protection, formazan growth assay
Experiment: NCI AIDS Antiviral Assay
Procedure: The ability of compounds to protect human CEM cells from HIV-1 infection is measured as a screen for new compounds capable of inhibiting the HIV virus. Five concentrations of drug were tested on uninfected and infected cells and cell growth was measured using a soluble formazan assay. […] Compounds that provided at least 50% protection were retested. Compounds that provided at least 50% protection on retest were listed as moderately active. […]
pEC50: −log10 of the molar value.
Recorded measurements of pEC50, one per entry

Known pEC50 results, listed for orientation:
CC(C)(C)[Si](C)(C)OC1(CCc2ccccc2OS(=O)(=O)C(F)(F)F)CCCC=C1COCc1ccccc1 (stereo not drawn)    < 3.70
CC(=O)NNc1nc(C)c(C(=O)/C=C/C=C/c2ccccc2)s1    < 4.66
CC(C)(CO)NCC(O)CS(=O)(=O)O (stereo not drawn)    < 3.70
Cn1cc(-c2ccc3c4ccccc4n(C)c3c2)c2ccccc21    < 5.06

INPUT: Fill blank: measured pEC50 of the molecule CC1(C)OC2OC(COC(=O)C=[N+]=[N-])C3OC(C)(C)OC3C2O1 (stereo not drawn) is ____.
OUTPUT: < 3.70

INPUT: Recorded pEC50 for `Clc1ccc(CCn2ccc3ccccc32)c(Cl)c1` , please?
OUTPUT: < 3.70

INPUT: Need pEC50, item `Cc1ccc(C(=O)N(C2CCCCC2)C2CCCCC2)cc1N=NN(C)C`
OUTPUT: < 4.71

INPUT: Please report the recorded pEC50 for COc1ccc(C2S/C(=C\c3cccc([N+](=O)[O-])c3)C(=O)N2NC(=O)Cc2ccccc2)cc1 (stereo not drawn) .
OUTPUT: < 4.40

INPUT: Quick check: pEC50 of `O=C1c2ccccc2C(=O)N1CSS(=O)(=O)O` ?
OUTPUT: < 3.70

INPUT: Bench note: what pEC50 did `CC1=NN2C(c3ccc(Cl)cc3)=CSC2=NC(C)(C)C1` show?
OUTPUT: < 3.79

INPUT: Look at this molecule and give its reported pEC50. `Cc1ccc2nc(NC(=O)C(=O)C3C(=O)NC(=S)NC3=O)sc2c1`
OUTPUT: < 3.16

INPUT: // returns reported pEC50 for input `CC1(C)CC[C@]2(C)CC=C3[C@]4(C)CC[C@H]5C(C)(C)C(=O)CC[C@]5(C)[C@H]4CC[C@@]3(C)[C@H]2C1`
OUTPUT: < 4.30

INPUT: Sample `CC1=CC(=O)/C(=C/N2C(=O)CNC2=S)C(=O)O1` — what was its pEC50?
OUTPUT: < 3.70

====

test system: CEM cells HIV-1 protection, formazan growth assay; test: NCI AIDS Antiviral Assay; conditions: measured here: growth of uninfected CEM cells
IC50 by entry:

Some solved entries appear below for comparison.
O=C(NCCO)c1c(O)c2ccccc2[nH]c1=O    > 200 µM
O=C(c1ccccc1)C(O)(c1ccccc1)C(c1ccccc1)c1ccccc1 (stereo unspecified)    > 26.3 µM
CC(C)(C)OC(=O)/C=C/C(=O)O/C=C/[N+](=O)[O-]    > 200 µM
O=c1[nH]c(=S)[nH]c2[nH]c(=S)[nH]c12    > 200 µM
CC(C)OP(=O)(CN(C)/C(F)=N\C(F)(F)F)OC(C)C    > 200 µM

INPUT: // query IC50 value for entry `O=C1c2ccccc2C(=O)C1(Br)c1ccccc1`
OUTPUT: > 200 µM

INPUT: May I ask what IC50 has been recorded for `Cn1cc(B(O)O)c(=O)[nH]c1=O` ?
OUTPUT: > 200 µM

INPUT: Suppose we examine the molecule `C/C(=N\NC(N)=O)c1ccc(Cl)cc1` ; what IC50 value has been reported?
OUTPUT: > 123 µM

INPUT: Requested read-out: IC50. Entry: `O=C(O)CCCCCCCc1cccc(OCCOCCO)c1`
OUTPUT: > 100 µM

INPUT: I would be grateful if you could share the reported IC50 for `C(=NC12CC3CC(CC(C3)C1)C2)C1CCCCC1` .
OUTPUT: > 200 µM

INPUT: GET /values?readout=IC50&item= `OCCN1CSC(=S)NCCNC(=S)SC1`
OUTPUT: > 63.1 µM

====

// values below are reported IC50
system: CEM cells HIV-1 protection, formazan growth assay; assay: NCI AIDS Antiviral Assay; conditions: measured here: growth of uninfected CEM cells

COc1ccc(CSc2nc3ccccc3nc2-c2cccs2)cc1    > 3.98 µM
O=C(NCCCCNCCCNC(=O)c1ccccc1)c1ccccc1    > 200 µM

Consider the record given below.
INPUT: Look at this molecule and give its reported IC50. `O=[N+]([O-])c1cc([N+](=O)[O-])c(/C=C/c2ccc(Cl)c(Cl)c2)cc1/C=C/c1ccc(Cl)c(Cl)c1`
OUTPUT: > 19.5 µM
